src = patent US20250170248A1

Measured Dmax of individual entries
Biological target: SMARCA4 (Homo sapiens, UniProt P51532)
Construct: SMARCA2/SMARCA4 protein degradation selectivity in MV4-11 cells; endogenous in cells; host or cells: MV4-11
Sequence (P51532 whole entry): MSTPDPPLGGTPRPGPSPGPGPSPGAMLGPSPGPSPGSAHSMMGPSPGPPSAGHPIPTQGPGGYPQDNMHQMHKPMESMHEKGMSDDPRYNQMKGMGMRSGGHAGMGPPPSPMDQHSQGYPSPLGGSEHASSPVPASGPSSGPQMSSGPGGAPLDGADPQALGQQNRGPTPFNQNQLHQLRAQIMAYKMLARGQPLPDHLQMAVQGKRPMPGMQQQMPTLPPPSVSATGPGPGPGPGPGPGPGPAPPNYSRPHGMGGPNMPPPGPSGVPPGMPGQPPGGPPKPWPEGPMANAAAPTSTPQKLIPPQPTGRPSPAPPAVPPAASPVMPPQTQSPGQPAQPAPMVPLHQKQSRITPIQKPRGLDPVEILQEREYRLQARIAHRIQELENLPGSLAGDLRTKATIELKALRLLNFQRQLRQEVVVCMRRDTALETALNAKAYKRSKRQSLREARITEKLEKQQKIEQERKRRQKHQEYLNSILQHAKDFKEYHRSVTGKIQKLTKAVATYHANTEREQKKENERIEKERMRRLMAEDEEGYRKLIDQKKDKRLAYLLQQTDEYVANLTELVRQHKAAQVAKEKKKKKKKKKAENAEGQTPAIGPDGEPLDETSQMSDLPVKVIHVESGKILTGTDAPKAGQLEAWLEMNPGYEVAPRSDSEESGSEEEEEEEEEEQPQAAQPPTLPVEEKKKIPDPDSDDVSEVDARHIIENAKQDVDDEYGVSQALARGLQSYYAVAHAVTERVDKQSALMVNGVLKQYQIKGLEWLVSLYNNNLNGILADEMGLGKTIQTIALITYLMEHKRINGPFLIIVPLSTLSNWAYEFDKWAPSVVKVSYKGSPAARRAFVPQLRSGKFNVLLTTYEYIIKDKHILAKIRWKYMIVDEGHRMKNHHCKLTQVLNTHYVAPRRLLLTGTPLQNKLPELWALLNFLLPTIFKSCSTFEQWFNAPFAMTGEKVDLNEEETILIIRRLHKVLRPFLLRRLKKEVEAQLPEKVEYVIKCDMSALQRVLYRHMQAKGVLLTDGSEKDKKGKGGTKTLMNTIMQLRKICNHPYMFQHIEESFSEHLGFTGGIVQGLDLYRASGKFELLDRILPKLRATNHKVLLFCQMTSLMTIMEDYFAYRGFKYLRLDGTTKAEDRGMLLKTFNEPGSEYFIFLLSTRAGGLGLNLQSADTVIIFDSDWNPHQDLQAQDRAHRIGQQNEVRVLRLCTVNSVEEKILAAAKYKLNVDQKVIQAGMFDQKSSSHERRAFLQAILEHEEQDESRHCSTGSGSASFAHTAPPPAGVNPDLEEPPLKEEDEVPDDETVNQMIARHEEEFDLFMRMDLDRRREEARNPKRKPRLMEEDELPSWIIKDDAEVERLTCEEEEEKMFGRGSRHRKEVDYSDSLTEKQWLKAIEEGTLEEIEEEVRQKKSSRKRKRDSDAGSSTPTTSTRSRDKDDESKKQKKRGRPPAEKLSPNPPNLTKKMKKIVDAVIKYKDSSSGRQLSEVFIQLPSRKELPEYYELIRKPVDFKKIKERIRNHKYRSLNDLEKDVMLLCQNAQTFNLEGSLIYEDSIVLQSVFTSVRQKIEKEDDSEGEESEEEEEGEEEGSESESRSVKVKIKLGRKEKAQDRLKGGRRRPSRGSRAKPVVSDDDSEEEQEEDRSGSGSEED
Assay: SMARCA4 Western blot degradation in MV4-11 cells
Format: cell-based
Conditions: MV4-11, MV4-11 cells, 24 h; read-out: SMARCA4 MSD MV411 degradation 24 h: average Dmax %
Experimental: Example 11. SMARCA2 and SMARCA4 Western Blot MV4-11 Degradation Cells were seeded into 6-well plates (MV4-11:4×10^6 cells/well/1 ml) and 1 ml of 2× compound solution was added into the well to make the final concentration and the plates were mixed well and incubated for 24 hours (No cytotoxicity was observed). The cell were collected with media and spun at 3000 rpm for 5 minutes. […] The membrane was washed three times with 5 minutes each and lastly the LiCOR was read. […]

compound: C#Cc1ccc(CNC(=O)[C@@H]2C[C@@H](O)CN2C(=O)[C@@H](NC(=O)[C@H]2CCC3(CC2)C[C@H](N2CCC(N4CCC(N5CCN6c7cc(-c8ccccc8O)nnc7NC[C@H]6C5)CC4)CC2)C3)C(C)(C)C)cc1 (single isomer, unassigned)
Dmax: < 50%
--
compound: C#Cc1ccc(CNC(=O)[C@@H]2C[C@@H](O)CN2C(=O)[C@@H](NC(=O)N2CC3(CC(N4CCC(c5cnc(N6CCc7[nH]c8nnc(-c9ccccc9O)cc8c7[C@H]6C)nc5)CC4)C3)C2)C(C)(C)C)c(OCCO)c1
Dmax: > 90%
--
compound: C#Cc1ccc(CNC(=O)[C@@H]2C[C@@H](O)CN2C(=O)[C@@H](NC(=O)N2CC3(CC(N4CCC(c5cnc(N6CCc7[nH]c8nnc(-c9ccccc9O)cc8c7[C@H]6C)nc5)CC4)C3)C2)C(C)(C)C)cc1 (single isomer, unassigned)
Dmax: 70 to 90%
--
compound: C#Cc1ccc(CNC(=O)[C@@H]2C[C@@H](O)CN2C(=O)[C@@H](NC(=O)N2CCCC(N3CCC(c4cnc(N5CCN6c7cc(-c8ccccc8O)nnc7NC[C@H]6C5)nc4)CC3)C2)C(C)(C)C)cc1 (mixture of isomers)
Dmax: < 50%
--
compound: C#Cc1ccc(CNC(=O)[C@@H]2C[C@@H](O)CN2C(=O)[C@@H](NC(=O)N2CC3(CC(N4CCC(N5CCC(N6CCN7c8cc(-c9ccccc9O)nnc8NC[C@H]7C6)CC5)CC4)C3)C2)C(C)(C)C)cc1
Dmax: 70 to 90%
--
compound: C#Cc1ccc(CNC(=O)[C@@H]2C[C@@H](O)CN2C(=O)[C@@H](NC(=O)N2CCN(CC3CCN(c4cnc(N5CCc6[nH]c7nnc(-c8ccccc8O)cc7c6[C@@H]5C)nc4)CC3)CC2)C(C)(C)C)cc1
Dmax: > 90%
--
compound: C#Cc1ccc(CNC(=O)[C@@H]2C[C@@H](O)CN2C(=O)[C@@H](NC(=O)C2CCC3(CC2)CC(N2CCC(N4CCC(C(=O)N5CCN6c7cc(-c8ccccc8O)nnc7NC[C@H]6C5)CC4)CC2)C3)C(C)(C)C)cc1 (some centres unmarked)
Dmax: < 50%
--
compound: C#Cc1ccc(CNC(=O)[C@@H]2C[C@@H](O)CN2C(=O)[C@@H](NC(=O)[C@H]2CCC3(CC2)C[C@H](N2CCC(c4cnc(N5CCN6c7cc(-c8ccccc8O)nnc7NC[C@H]6C5)nc4)CC2)C3)C(C)(C)C)c(OCCCN(C)C)c1 (single isomer, unassigned)
Dmax: > 90%
